Molecular target: β2-adrenoreceptor (Homo sapiens)
Test: cAMP determination in cells expressing β2-adrenoreceptor
Details: read-out: EC50 (β2), binding potency measured by cAMP determination
Source text: Accordingly the invention also provides a compound of formula I in free, salt or solvate form for use as a pharmaceutical. […] The β2 agonist activity, onset of action and duration of action of the agents of the invention may be tested using the guinea pig tracheal stip in vitro assay according to the procedure of R. A. Coleman and A. T. Nials, J. Pharmacol. Methods (1989), 21(1), 71-86. […]
Counter-ions that a name gives are not always drawn.
Hi there, I'd appreciate the recorded EC50 for every entry that follows.
Answers are plain numbers, in pM.

Some solved entries appear below for comparison.
{"MOLECULE": "CC1(NC[C@H](O)c2ccc(O)c3[nH]c(=O)ccc23)Cc2ccccc2C1", "RESULT_VALUE": 12}
{"MOLECULE": "COc1ccc(OC)c2c1CC(NC[C@H](O)c1ccc(O)c3[nH]c(=O)ccc13)C2 [Example 1, hydrochloride]", "RESULT_VALUE": 920}

Let us examine a further case.
Tell me reported EC50 for `CCCc1cc2c(cc1CCC)CC(NC[C@H](O)c1ccc(O)c3[nH]c(=O)ccc13)C2` , tested with β2-adrenoreceptor (Homo sapiens).
570

====

molecular target: β2-adrenoreceptor (Homo sapiens, UniProt P07550); assay: cAMP determination in cells expressing β2-adrenoreceptor; settings: read-out: EC50 (β2), binding potency measured by cAMP determination
Sequence (P07550 whole entry, species assumed): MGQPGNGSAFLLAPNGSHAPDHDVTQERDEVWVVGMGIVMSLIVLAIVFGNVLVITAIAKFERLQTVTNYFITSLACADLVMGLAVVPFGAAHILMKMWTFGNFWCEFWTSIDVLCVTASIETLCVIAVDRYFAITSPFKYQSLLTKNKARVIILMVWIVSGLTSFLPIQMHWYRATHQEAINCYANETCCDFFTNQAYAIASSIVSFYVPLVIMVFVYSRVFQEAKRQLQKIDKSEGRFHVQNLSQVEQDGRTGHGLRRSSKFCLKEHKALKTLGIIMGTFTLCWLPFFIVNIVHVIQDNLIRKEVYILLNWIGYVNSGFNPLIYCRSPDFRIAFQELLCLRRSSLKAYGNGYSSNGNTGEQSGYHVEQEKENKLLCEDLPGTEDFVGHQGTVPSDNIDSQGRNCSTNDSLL
Hi there, I'd appreciate the recorded pEC50 for every entry that follows.
One number for each entry, as −log10 of the molar value.

Some solved entries appear below for comparison.
{"MOLECULE": "CCc1ccc(CC)c2c1CC(NC[C@H](O)c1ccc(O)c3[nH]c(=O)ccc13)C2", "TESTED_ON": "β2-adrenoreceptor (Homo sapiens, UniProt P07550)", "VALUE_TYPE": "pEC50", "RESULT_VALUE": 8.22}
{"MOLECULE": "O=c1ccc2c([C@@H](O)CNC3Cc4cc5c(cc4C3)CCCC5)ccc(O)c2[nH]1", "TESTED_ON": "β2-adrenoreceptor (Homo sapiens, UniProt P07550)", "VALUE_TYPE": "pEC50", "RESULT_VALUE": 9.10}
{"MOLECULE": "O=c1ccc2c([C@@H](O)CNC3Cc4cc5c(cc4C3)OCCO5)ccc(O)c2[nH]1", "TESTED_ON": "β2-adrenoreceptor (Homo sapiens, UniProt P07550)", "VALUE_TYPE": "pEC50", "RESULT_VALUE": 9.52}

Form field: reported pEC50 of CCc1cc2c(cc1CC)CC(NCC(O)c1ccc(O)c3[nH]c(=O)ccc13)C2 (stereo not shown)
9.64

====

Biological target: β1-adrenoreceptor (Homo sapiens)
Sequence (P08588 whole entry, species assumed): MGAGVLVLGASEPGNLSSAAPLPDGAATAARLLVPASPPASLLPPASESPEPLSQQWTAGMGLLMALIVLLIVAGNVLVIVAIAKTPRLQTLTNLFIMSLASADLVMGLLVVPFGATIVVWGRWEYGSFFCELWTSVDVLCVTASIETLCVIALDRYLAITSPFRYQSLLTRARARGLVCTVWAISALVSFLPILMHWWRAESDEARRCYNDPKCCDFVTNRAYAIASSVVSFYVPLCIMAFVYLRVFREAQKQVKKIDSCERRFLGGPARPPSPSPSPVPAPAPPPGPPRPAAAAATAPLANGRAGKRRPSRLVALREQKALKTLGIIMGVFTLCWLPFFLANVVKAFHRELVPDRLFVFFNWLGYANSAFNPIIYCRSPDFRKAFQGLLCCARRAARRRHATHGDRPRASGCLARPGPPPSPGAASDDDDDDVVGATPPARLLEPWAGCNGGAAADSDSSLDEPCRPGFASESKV
Test: cAMP determination in cells expressing β1-adrenoreceptor
Assay type: cell-based
Excerpt: Accordingly the invention also provides a compound of formula I in free, salt or solvate form for use as a pharmaceutical. […] The β2 agonist activity, onset of action and duration of action of the agents of the invention may be tested using the guinea pig tracheal stip in vitro assay according to the procedure of R. A. Coleman and A. T. Nials, J. Pharmacol. Methods (1989), 21(1), 71-86. […]
VALUE_TYPE: EC50 (nM)
Numbers only, in nM.

Form field: reported EC50 of CCc1cc2c(cc1CC)CC(NCC(O)c1ccc(O)c3[nH]c(=O)ccc13)C2 (stereo not shown)
1.25
